Kindly supply the reported %Inh values for the records listed here.
tested on: BUB1; conditions: concentration: 1 μM, replicates: in singlicate; n = 1
Answers are plain numbers, in %.

# count of solved cases: 4
compound	scale-unit	%Inh
Cc1ccc(NC(=O)Nc2cccc(Cl)c2)cc1-c1ccc(C(=O)Nc2ccncc2)cc1	%	53
CC(C)(C)c1ccc(C(=O)Nc2cn3cc(Cl)ccc3n2)cc1	%	0
Cc1nnc(-c2ccc3occ(-c4ccc(S(C)=O)cc4)c3c2)[nH]1 (centres unmarked)	%	26
Cn1cncc1-c1ccc2ncnc(Nc3ccc(OCc4ccccc4)cc3)c2c1	%	26

Request body: readout %Inh, system BUB1, query CN1C(=O)C(Nc2ccc(Cl)c(C(=O)O)c2)=C(c2ccc(Cl)cc2)C1=O . Return the value.
0

---

tested on: AURKA
quantity-measured: pKd
One number for each entry, as −log10 of the molar value.

Quick check: pKd of COc1cc2ncnc(Nc3ccc4nc(-c5ccccc5)[nH]c4c3)c2cc1OC.Cl [GW282450] ?
5.64

---

tested on: TYK2(JH2domain-pseudokinase); details: concentration: 1 μM, replicates: in singlicate; n = 1
Label N if %Inh falls below 20%; label Y in every other case.

Worked set:
compound	assayed-target	discrete-label
Nc1ncnc2[nH]c(-c3ccccc3)nc12 [AH5015]	TYK2(JH2domain-pseudokinase)	Y
Cc1cccc(-c2nc(Nc3ccncc3)c3ccccc3n2)n1 [GW855857]	TYK2(JH2domain-pseudokinase)	Y
COc1cc2ncnc(Nc3ccc4nc(-c5ccccc5)[nH]c4c3)c2cc1OC.Cl [GW282450]	TYK2(JH2domain-pseudokinase)	N
COc1ccc(Nc2nccc(-c3cccc(NC(=O)c4cc5cc(F)ccc5[nH]4)c3)n2)cc1 [GSK1229782]	TYK2(JH2domain-pseudokinase)	Y
CCn1c(-c2ccccn2)nc2cnccc21 [SB-736398]	TYK2(JH2domain-pseudokinase)	Y

Could you now look at the following compound, please?
Hi team, for CS(=O)(=O)c1ccc(-c2nc3n(c2-c2ccncc2)CCC3)cc1 [SKF-105942] , is the recorded %Inh at or above 20%?
N

---

system: HIPK3
quantity-measured: Kd (nM)
Numbers only, in nM.

May I ask what Kd has been recorded for Cc1nnc(-c2ccc3occ(-c4ccc(S(C)=O)cc4)c3c2)[nH]1 (stereo not shown) ?
340

---

test system: S6K1; details: concentration: 1 μM, replicates: in singlicate; n = 1
quantity-measured: %Inh (%)
Give bare numbers, in %.

compound	assayed-target	assay-result
O=C(O)COc1ncnc2cc(-c3ccc4[nH]ncc4c3)sc12	S6K1	0
Cn1ccc2ncnc(Oc3ccc(NC(=O)Nc4ccccc4)cc3)c21	S6K1	0
CCn1c(-c2ccccn2)nc2cnccc21	S6K1	7

Record %Inh per entry; entries follow.
1. COc1cc2nccc(Nc3ccc(NC(=O)c4ccc(C)cc4)c(O)c3)c2cc1OC.Cl
2. Nc1ncnc2[nH]c(-c3ccccc3)nc12
3. Cl.NC(=O)c1cccc(Nc2nccc(Nc3ccc(Oc4cccc(Cl)c4)c(Cl)c3)n2)c1

1. 0
2. 22
3. 0

Quick batch: %Inh for everything below.
1. CC(=O)Nc1nc2cnc(Nc3cc(NC(=O)c4cccc(CCC#N)c4)ccc3C)nc2s1
2. COc1cccc(-c2cc(-c3c[nH]nc3-c3ccccn3)ccn2)c1
3. Cc1cccc(-c2nc(-c3ccc(S(C)(=O)=O)cc3)sc2-c2ccnc(NCCc3ccccc3)c2)c1
4. COc1ccccc1-c1ccc2c(NC(=O)C3CC3)n[nH]c2n1
5. Cc1cccc(-c2cc(Nc3ccncc3)c3ccccc3n2)n1
6. CN1C(=O)C(Nc2ccc(Cl)c(C(=O)O)c2)=C(c2ccc(Cl)cc2)C1=O
7. COc1cc2ncn(-c3cc(OCC4CCCO4)c(C(N)=O)s3)c2cc1OC (stereo not shown)

1. 3
2. 6
3. 0
4. 7
5. 0
6. 53
7. 0

For each of the compounds below, note its %Inh.
1. CN(C)CCN(C)C(=O)c1cc(-c2ccncc2)c(-c2ccc(Cl)c(O)c2)o1.Cl.Cl
2. Cc1ccc(NC(=O)Nc2cc(C(C)(C)C)nn2-c2ccccc2)cc1
3. COc1cccc(NC(=O)NC2CCN(c3ccnc(Nc4ccc(F)cc4)n3)C2)c1 (stereo not shown)
4. Nc1nc(-c2nccs2)c(-c2ccnc3ccccc23)s1
5. CC(C)(C)c1ccc(C(=O)Nc2cn3cc(Cl)ccc3n2)cc1

1. 15
2. 10
3. 0
4. 0
5. 0

Item under review: O=C(Nc1n[nH]c2nc(-c3nccs3)c(Br)cc12)C1CCCC1 . Reported %Inh?
19
